Molecular target: PAR4 (Homo sapiens)
Sequence (Q96RI0 18-385): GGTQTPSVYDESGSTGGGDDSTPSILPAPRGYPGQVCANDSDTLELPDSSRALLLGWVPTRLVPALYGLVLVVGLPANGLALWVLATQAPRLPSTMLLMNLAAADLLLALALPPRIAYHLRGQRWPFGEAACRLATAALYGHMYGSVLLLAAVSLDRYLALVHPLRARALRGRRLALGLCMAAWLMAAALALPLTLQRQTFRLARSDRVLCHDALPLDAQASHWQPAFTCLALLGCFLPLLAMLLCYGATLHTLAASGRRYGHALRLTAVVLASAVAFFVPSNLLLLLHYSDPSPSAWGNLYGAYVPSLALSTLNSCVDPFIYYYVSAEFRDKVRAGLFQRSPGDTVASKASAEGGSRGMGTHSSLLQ
Test: Human platelet activity assay, flow cytometry, γ-thrombin activation
Assay type: cell-based
Parameters: endogenous in cells; host or cells: washed human platelets from healthy volunteers
Conditions: human platelets, 100 nM γ-thrombin, GPIIbIIIa activation (PAC1); read-out: Human Platelets PAC1 IC50
pIC50: −log10 of the molar value.
measured.parameter: pIC50

Here's what some known entries look like.
> print(dat)
                                 cpd.smiles  experimental.target  measured.parameter  experimental.result
1  O=C(Nc1n[nH]c(C2CC2)n1)c1nn(-c2cccc(F)c2)c2c1CCCC2  PAR4 (Homo sapiens)               pIC50                 6.60
2  O=C(Nc1n[nH]c(-c2ccccc2)n1)c1nn(-c2ccccc2)c2c1CCCC2  PAR4 (Homo sapiens)               pIC50                 6.35

[I] N#Cc1ccc(-c2nc(NC(=O)c3nn(-c4ccccc4)c4c3CCCC4)n[nH]2)cc1
[II] O=C(Nc1n[nH]c(C2CC2)n1)c1nn(-c2ccccc2)c2c1CCCC2
Ask: Given the two records I and II , choose the one whose pIC50 value is lower. Write the label of whichever entry you select.
Reply: I
(I: 6.40, II: 6.74)
